- EXPERIMENTAL PROTOCOL: yeast display, Sf9 membrane polyspecificity reagent, FACS + sequencing; frameworks hold sequencing errors

SEQUENCE INPUT	polyreactivity (PSR sort gate)
QVQLVESGGGIVQAGGSLRLSCAASGRTFYYAMGWYRQAPGKERELVAAITSSSSTYYADSVKGRFTISRDNAKNTVYLQMNSLKPEDTAVYYCNSADDPYGSPSYGYDYWGQGTQVTVSS	low polyreactivity
QVQLVESGGGLVQAGGSLRLSCAASGSNFVGYAMGWYRQAPGKERELVAGITASGTNTYYADSVKGRFTISRDNAKNTVYLQMNSLKPEDTAVYYCAAESNRRFEGEYWGQGTQVTVSS	high polyreactivity
QVQLVESGGGLVQAGGSLRLSWAASGGTFYFNAMGWYLQAAGKEWELVATIRYSGGSTYYADSVKGRFTISRDNAKNTAYLQMNSLKPADTAVYYCNARPRYLSPYRPFKYNYWGQGTQVTVSS	high polyreactivity
QVQLVESGGGLVQAGGSLRLSCAASGRTSLAYSMGWYRQAPGKERELVAAINTRGGSTYYADSVKGRFTISRDNAKNTVYLQINSLKPEDTAVYYCAKGPRLYFTPDKAHWKYDSWGQGTQVTVSS	low polyreactivity
QVQLVESGGGLVQAGGSLRLSCAASGITFWYYAMGWYRQAPGKERELVAVISRGGSTYYADSVKGRFTISRDNAKNTVYLQLNSLKPEDTAVYYCAARPRWYTYTRQEYDYWGQGTQVTVSS	high polyreactivity
QVQLVESGGGLVQAGGSLRLSCAASGRTFPYYAMGWYRQAPGKERELVAAITWSGGSTYYADSVKGRFTISRDNAKNTVYLQMNSLKPEDTAVYYCAKDYSRWGWNMGYWGQGTQVTVSS	high polyreactivity
QVQLVESGGGLVQAGGTLRLSCAPSGRTFKRYAMGWYRQAPGKERELVAAISSGGSTYADSVKGRFTISRDNAKNTVYLHMNSLKTEDTAVYYCAARYRSYPERYNYWGQGTQGTVSS	high polyreactivity
QVQLVESGGGLVQAGGSLRLSCAASGIIFYTYVMGWYRQAPGKEREFVAGISTSGGRTDYADSVKGRFTISRDNAKNTVYLQMNSLKPEDTAVYYCNKLYRYPRYYYWGQGTQVTVSS	high polyreactivity
QVQRVESGGGLVQAGGSLRLSCAASRRIFKLYAMGWYIQAPGKERELVAAINRRGGSTSYADSVKVRFTISRDYAKNTVYLQMNSLKPEDTAVYYCAASYTGRTVVQGYEYWGQGTQVTVSS	high polyreactivity
QVQLVESGGGLVQAGGSLRLSCADSGNIFSWYAMGWYRQAPGKERELVAAITWSGGTTYYADSVKGRFTISRDNAKNTVYLQMNSLKPEDTAVYYCAVFSRYRSGYYSWGQGTQVTVSS	high polyreactivity
QVQLVESGGGLVQAGGSLRLSCAASGRIFSNNVMGWYIQAPGKERELVATISTDGRTNYADSVKGRFTISRDNAQNTVYLQMNSLKPEDTAVYFCAATGVTILLSSKSDYWGQGTQVTVSS	low polyreactivity
QVQLVESGGGLVQAGGSLRLSCAASGRTLYYYTMGWYRQAPGKERELVAAIRWSTGSTYYADSVKGRFTISRDNAKNTVYLQMNSLKPEDTAVYYCNAVVARLIFWQFDYWGQGTQVTVSS	high polyreactivity
QVQLVESGGGLVQAGGSLRLSCAASGSTLVGNAMGWYRQAPRKERELVATISKRSGSTYYADSVKGRFTISRDNAKNTVYLQMNSLKPEDSAVYYCNADDVRRRAYRIGSYWGYDYWGQGTQVTVSS	low polyreactivity
QVQLVESGGGLVQAGGSLRLSCSASGTFYGYAMAWSRQAPGKERELVASSTWGGGRTYYADSVKGRFTTSRDNAKNTVYLQMNSLKPEDTAVYYCATRSRPQYNKYDYWGQGTQVTVSS	high polyreactivity
QVQLVESGGGLVQAGGSLRLSCAASGIIFDEYAMGWYRQAPGKERELVAVIDWSGGSTYYADSVKGRFTISRDNAKKTVYLQMNSLKPEVTAVYYCAAEDDSSTPEFDYWGQGTQVTVSS	low polyreactivity
QVQLVESGGGLVQAGGSLRLSCAASGRIFIGYAMGWYRQAPGKERELVAAISWGGGSTFYADSVKGRFTISRDNAKNTVYLQMNSLKPEDTAVYYCNKVYRQRVVKGGYWGQGTQVTVSS	high polyreactivity
QVQLVESGGCLDQAGGSLRLSCAASGFTFYNYAMGWYRQEPGKETQLVAAITRNGGRTYYADSVKWRFTISRDNAKYTVYLQMNSLKPEDTAFYYCASKKYKTVRYDYWGQGTQGTVSS	high polyreactivity
QVQLVESGGGLVQAGGSLRLSCAASGSTLNYYAMGWYRQAPGKERELVAAIRSGGNTNYADSVKGRFTISRDNAKNTVYLQMNSLKPEDTAVYYCAKDESYFYDRVPLDYWGQGTQVTVSS	low polyreactivity
QVQLVESGGGLVQAGGSLRLSCAASGRTFGVYAMGWYRQAPGKERELVASISRSGGSTYYADSVKGRFTISRDNAKNTVYLQMNSLKPEDTAVYYCAAVYKRGMDYWGQGTQVTVSS	high polyreactivity
QVQLVESGGGLVQAGGSLRLSCAASGRILYYYAMGWYRQAPGKERELVAAITWGGGSTYYADSVKGRFTISRDNAKNTVYLQMNSLKPEDTAVYYCNRTFRSRLPTSRGYDYWGQGTQVTVSS	low polyreactivity
QVQLVESGGGLVQAGGSLRLSCAASGYIFKYYAMGWYRQAPGKERELVAAISRSGDSTYYADSVKGRFTISRDNAKNTVYLQMNSLKPEATAVYYCKARYWHGPTGSDYWGQGTQVTVSS	high polyreactivity
